molecular target: Grb2 SH2 (UniProt P62993); assay: SH2 binding enrichment of the phosphorylated peptide, bacterial display (enrichment ratio); higher = better substrate or ligand; peptides without Tyr show the background
Sequence (P62993 whole entry, looked up): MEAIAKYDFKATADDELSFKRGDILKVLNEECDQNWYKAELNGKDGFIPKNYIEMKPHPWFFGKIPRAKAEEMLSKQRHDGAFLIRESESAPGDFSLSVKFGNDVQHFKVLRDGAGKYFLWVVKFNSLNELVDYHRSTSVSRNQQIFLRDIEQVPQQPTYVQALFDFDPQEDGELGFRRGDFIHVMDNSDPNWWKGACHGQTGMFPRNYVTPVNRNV
MEASURED QUANTITY: SH2 binding enrichment
Field format: numeric only.

Below, 3 sequences whose answers are already recorded.
// lookup SH2 binding enrichment for SSNLYYRCLTA [CNGA3_Y169_W171C]
0.702

Another: TLSGIYQFNIA [FOXL2_Y81_I84N_YF]
1

Another: GRRNTCYASIA [ACADM_Y352_Y352C]
0.972

Next:
// lookup SH2 binding enrichment for QAQMDYRRLQP [MPL_Y591]
0.819

Another: CPPKVYELMIA [ABL2_Y515_R519I]
0.817

Another: QDGFSYPSRQM [LDLR_Y847_YF]
1.48

Another: KDGNGYISVAE [CALM3_Y100_A103V]
0.685

Another: EDKFMYLEFPQ [PTEN_Y240_F241L]
0.797

Another: NRKGKYFNVER [ANAPC4_Y469]
0.498

Another: TSLAQYDSNSK [BMX_Y216]
0.826

Another: LNRAGYCDALE [MTUS1_Y151_C148R]
0.773

Another: FAADFYKLLGN [ROR2_Y646_YF]
0.849

* * *

biological target: Fes (UniProt P07332); experiment: phosphorylation enrichment, bacterial display (enrichment ratio); higher = better substrate or ligand; peptides without Tyr show the background
Sequence (P07332 whole entry, looked up): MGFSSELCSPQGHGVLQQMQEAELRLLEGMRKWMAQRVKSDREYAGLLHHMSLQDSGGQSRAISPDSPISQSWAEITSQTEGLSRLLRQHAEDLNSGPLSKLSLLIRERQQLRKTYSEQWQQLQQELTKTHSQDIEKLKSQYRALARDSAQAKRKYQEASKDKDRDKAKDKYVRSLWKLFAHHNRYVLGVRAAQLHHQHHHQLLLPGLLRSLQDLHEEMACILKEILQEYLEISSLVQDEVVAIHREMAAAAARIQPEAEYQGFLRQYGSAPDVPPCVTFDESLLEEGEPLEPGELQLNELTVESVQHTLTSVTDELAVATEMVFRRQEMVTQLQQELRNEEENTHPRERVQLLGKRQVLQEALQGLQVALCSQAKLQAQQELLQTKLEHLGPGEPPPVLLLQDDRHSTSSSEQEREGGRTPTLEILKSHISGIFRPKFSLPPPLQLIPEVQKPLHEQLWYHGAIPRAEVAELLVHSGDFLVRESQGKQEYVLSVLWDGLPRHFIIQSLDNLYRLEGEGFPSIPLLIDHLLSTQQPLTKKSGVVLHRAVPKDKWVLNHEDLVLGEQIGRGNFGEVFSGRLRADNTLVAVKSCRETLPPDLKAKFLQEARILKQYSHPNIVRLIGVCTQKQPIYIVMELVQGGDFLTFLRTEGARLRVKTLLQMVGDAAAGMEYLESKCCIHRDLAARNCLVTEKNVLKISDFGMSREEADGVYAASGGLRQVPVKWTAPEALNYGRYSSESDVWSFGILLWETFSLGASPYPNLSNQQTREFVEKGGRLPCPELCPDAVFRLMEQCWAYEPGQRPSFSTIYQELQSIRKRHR
Dear colleague, classification is by phosphorylation enrichment, with ranges listed here: interval 1 = under 0.6, interval 2 = from 0.6 up to 1, interval 3 = 1 and over

Consider the following illustrative entries.
Lab log: SDPIIYTLENI [ADGRE1_Y534] — assign phosphorylation enrichment category
interval 3

Another: RRAKGYPINLY [ITGB2_Y125_D128N]
interval 2

Another: KMKGEYFRFLA [YWHAG_Y130_D129E_YF]
interval 2

Another: KVALLYKPYFY [POLE_Y100_P99L]
interval 3

Another: FNSLLYQVPTS [CALCOCO2_Y358_P357L]
interval 3

Next:
Lab log: AGIENYKSRFG [NKD2_Y256_T257K] — assign phosphorylation enrichment category
interval 1

Another: MGRVNYGAFIN [GLB1_Y485_YF]
interval 2

Another: APSHAYHGGVL [ANO1_Y981]
interval 1

Another: VDASFYGGRGV [ANTXR2_Y381_YF]
interval 2

Another: VTPSEYLEIVR [TMEM130_Y412_E407V]
interval 2

Another: TKQLTYEEQDL [PIK3C3_Y310]
interval 3

Another: AVLALHNSTRD [TGFB1_Y81_Y81H]
interval 2

Another: PAIFTYDEFKK [COL8A2_Y648_T645I_YF]
interval 3

Another: LSSEMYVKSYT [F5_Y2149]
interval 3

Another: ISKKRYAGLLF [POLD1_Y809]
interval 1

Another: SSMIDYKPLEK [MYOC_Y479_N480K]
interval 1

Another: GLIPAYHRVIM [NMNAT1_Y64]
interval 2

Another: LSALDYKIFYY [WDPCP_Y210]
interval 3

Another: TSLAQYDSNSK [BMX_Y216]
interval 2

* * *

target: EPHB2 (UniProt P29323); experiment: phosphorylation enrichment, bacterial display (enrichment ratio); higher = better substrate or ligand; peptides without Tyr show the background
Sequence (P29323 whole entry, looked up): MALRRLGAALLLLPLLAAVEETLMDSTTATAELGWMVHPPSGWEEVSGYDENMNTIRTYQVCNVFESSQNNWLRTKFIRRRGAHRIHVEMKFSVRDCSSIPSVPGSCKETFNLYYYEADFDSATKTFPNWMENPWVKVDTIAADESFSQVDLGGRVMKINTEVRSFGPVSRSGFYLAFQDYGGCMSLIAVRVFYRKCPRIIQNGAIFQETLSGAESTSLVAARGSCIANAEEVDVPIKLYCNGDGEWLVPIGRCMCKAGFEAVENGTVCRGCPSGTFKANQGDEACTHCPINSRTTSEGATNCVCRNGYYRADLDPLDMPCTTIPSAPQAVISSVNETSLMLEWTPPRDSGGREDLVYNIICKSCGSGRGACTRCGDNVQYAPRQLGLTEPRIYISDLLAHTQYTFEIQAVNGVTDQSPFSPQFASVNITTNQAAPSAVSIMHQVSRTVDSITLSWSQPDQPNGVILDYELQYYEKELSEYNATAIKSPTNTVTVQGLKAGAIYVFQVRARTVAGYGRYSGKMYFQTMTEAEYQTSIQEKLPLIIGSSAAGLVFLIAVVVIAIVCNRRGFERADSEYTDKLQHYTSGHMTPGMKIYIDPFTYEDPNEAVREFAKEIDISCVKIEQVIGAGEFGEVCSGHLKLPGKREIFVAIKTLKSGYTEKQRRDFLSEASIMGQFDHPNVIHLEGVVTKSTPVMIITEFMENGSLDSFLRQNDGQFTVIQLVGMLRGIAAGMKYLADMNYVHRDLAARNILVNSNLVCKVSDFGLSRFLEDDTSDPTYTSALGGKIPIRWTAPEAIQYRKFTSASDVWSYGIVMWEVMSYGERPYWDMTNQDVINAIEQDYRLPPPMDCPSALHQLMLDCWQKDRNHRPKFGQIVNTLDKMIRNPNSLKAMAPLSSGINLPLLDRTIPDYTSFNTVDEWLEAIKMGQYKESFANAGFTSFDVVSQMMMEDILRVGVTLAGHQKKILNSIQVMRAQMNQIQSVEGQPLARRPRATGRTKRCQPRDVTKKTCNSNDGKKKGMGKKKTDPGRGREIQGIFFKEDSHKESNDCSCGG
Hi, to clarify the labels: Yes covers phosphorylation enrichment from 0.5 upward, No covers anything below 0.5.

API: above_or_equal(metric=phosphorylation enrichment, cutoff=0.5) for item KDQGIYEDFVE [MYL6_Y86_T85I_YF]
Yes

* * *

tested on: c-Src; experiment: phosphorylation enrichment, bacterial display (enrichment ratio); higher = better substrate or ligand; peptides without Tyr show the background
MEASURED QUANTITY: phosphorylation enrichment

// lookup phosphorylation enrichment for AELKLYSGAQT [ZAP70_Y178_R175L]
0.362

Another: EATKGYLDDPT [G6PD_Y322]
0.392

Another: GEDEPYAEPYA [APBA1_Y183_S184A]
0.639

Next:
// lookup phosphorylation enrichment for ITVCDYTNPCP [MYD88_Y276_T281P]
0.943

Another: FATAGYGSLEA [EPHA10_Y959_A956T]
0.637

Another: NFFDLYGGEKF [PTPN11_Y66_D61N_YF]
2.73

Another: GEIQEYGAPSD [ABCC1_Y1508]
0.438

Another: QRALLYEDTLF [UNC13D_Y56_A59T_YF]
1.95

Another: VGTKRYVAPEV [ACVRL1_Y375_M376V]
0.458

Another: ILTFKYLQIPM [KIT_Y547_K550I_YF]
0.344

Another: TSNQEYLDLSM [FGFR1_Y766]
0.492

Another: ETVHRYVELLD [AP1S3_Y87_I83T]
0.461

Another: ISDEAYVMAGV [ERBB2_Y772_L768S]
0.504

Another: QERPEYWDQET [HLA-A_Y83_G80R]
0.554

* * *

molecular target: MERTK (UniProt Q12866); test: phosphorylation enrichment, bacterial display (enrichment ratio); higher = better substrate or ligand; peptides without Tyr show the background
Sequence (Q12866 whole entry, looked up): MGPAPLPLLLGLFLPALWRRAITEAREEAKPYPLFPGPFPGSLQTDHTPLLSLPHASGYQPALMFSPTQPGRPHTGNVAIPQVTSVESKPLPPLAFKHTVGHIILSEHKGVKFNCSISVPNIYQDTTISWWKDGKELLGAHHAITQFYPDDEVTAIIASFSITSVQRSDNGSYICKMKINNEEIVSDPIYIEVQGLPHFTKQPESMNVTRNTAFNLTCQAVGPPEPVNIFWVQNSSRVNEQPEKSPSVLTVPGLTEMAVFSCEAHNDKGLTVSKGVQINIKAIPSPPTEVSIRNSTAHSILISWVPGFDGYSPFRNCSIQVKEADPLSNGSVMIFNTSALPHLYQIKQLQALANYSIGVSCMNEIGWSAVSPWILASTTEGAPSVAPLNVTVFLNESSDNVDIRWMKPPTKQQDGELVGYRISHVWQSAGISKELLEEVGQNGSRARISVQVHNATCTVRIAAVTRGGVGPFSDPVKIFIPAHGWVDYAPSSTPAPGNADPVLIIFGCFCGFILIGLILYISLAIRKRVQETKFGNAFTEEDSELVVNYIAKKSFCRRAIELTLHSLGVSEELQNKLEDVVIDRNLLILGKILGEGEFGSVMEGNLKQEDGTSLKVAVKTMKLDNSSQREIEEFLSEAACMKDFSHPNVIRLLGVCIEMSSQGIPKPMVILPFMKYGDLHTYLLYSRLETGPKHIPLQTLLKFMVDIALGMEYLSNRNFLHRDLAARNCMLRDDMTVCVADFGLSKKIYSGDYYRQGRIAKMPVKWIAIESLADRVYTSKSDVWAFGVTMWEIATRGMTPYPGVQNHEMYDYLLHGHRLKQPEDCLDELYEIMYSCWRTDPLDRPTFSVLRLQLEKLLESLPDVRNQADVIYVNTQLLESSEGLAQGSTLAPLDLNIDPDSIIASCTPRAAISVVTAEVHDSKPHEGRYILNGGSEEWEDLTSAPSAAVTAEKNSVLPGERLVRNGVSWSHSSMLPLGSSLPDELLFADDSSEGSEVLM
MEASURED QUANTITY: phosphorylation enrichment
Field format: numeric only.

// lookup phosphorylation enrichment for HILFRYPKEFQ [IDS_Y234_P231L]
0.573

Shifting focus to the sequence that follows.
// lookup phosphorylation enrichment for YKIYLYTLNDN [FN1_Y1975]
0.383

* * *

target: MERTK (UniProt Q12866); assay: phosphorylation enrichment, bacterial display (enrichment ratio); higher = better substrate or ligand; peptides without Tyr show the background
MEASURED QUANTITY: phosphorylation enrichment
Field format: numeric only.

Below, 6 sequences whose answers are already recorded.
// lookup phosphorylation enrichment for ISIFRYAKGQP [MPZ_Y82_H81R]
0.49

Another: ERRLIYTSDPK [VPS13D_Y864]
0.444

Another: FFVVRYCWLRR [MPZ_Y181_YF]
0.564

Another: LRTAVYHEILI [CREBBP_Y1450]
7.48

Another: RPGSGYTKIMR [PKLR_Y564_N566K]
0.48

Another: SHISGYATLRR [RAPH1_Y1226]
0.438

Next:
// lookup phosphorylation enrichment for HHIDFYKKTTN [FGFR1_Y654_YF]
0.408

Another: RRIHSHRGHLW [VHL_Y112_Y112H]
0.621

Another: ATARPYRPFII [LRP5_Y1528_YF]
0.469

Another: APSHAYHGGVL [ANO1_Y981]
0.381

Another: VIDGKYAFKPK [GTF2E2_Y137]
0.323

Another: IFLENYNAGTF [CFI_Y421_H418L_YF]
0.428

Another: RNIQQCNSFVS [PRKAR1A_Y373_Y373C]
0.66

Another: TSIGNYFKPWF [DHCR24_Y299_N294T_YF]
4.44

* * *

target: Jak2 (UniProt O60674); experiment: phosphorylation enrichment, bacterial display (enrichment ratio); higher = better substrate or ligand; peptides without Tyr show the background
Sequence (O60674 whole entry, looked up): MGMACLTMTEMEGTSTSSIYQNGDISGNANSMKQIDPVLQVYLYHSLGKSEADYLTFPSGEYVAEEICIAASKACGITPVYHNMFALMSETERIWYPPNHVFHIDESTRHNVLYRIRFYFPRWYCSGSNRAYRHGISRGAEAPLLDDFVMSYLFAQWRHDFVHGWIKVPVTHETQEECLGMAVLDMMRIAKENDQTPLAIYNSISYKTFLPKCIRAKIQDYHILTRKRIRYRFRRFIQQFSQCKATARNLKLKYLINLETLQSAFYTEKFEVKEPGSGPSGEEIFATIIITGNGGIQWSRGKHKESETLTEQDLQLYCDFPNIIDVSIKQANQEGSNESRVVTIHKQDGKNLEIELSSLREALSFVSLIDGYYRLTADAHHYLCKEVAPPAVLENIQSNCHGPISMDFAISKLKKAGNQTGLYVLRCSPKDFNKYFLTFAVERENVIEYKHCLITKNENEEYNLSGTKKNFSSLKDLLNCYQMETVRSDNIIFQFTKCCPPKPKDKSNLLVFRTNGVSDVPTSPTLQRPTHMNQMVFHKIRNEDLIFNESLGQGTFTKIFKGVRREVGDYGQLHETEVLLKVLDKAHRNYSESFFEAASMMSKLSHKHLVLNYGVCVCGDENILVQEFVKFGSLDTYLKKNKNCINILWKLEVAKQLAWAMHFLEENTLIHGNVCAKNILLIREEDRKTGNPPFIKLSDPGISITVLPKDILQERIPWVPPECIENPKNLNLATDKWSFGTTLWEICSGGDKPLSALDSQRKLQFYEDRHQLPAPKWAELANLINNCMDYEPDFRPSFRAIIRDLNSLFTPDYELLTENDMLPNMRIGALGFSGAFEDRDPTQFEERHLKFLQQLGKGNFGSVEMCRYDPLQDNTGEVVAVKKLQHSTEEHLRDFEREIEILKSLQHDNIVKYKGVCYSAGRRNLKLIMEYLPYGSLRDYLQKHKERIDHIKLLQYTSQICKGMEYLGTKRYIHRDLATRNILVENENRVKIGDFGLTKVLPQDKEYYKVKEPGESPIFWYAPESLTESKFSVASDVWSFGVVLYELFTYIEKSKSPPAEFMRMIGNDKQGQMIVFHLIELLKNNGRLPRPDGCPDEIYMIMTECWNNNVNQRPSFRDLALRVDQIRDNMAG
Hi, to clarify the labels: rule met covers phosphorylation enrichment from 0.7 upward, rule not met covers anything below 0.7.

Consider the following illustrative entries.
API: above_or_equal(metric=phosphorylation enrichment, cutoff=0.7) for item WIPNQYPIISE [NOG_Y222_I220N]
rule met

Another: SIKDKYVTAVY [KCNH2_Y611_L615V]
rule not met

Another: VFAANYFKLLG [ROR2_Y645_D644N_YF]
rule met

Another: ILGRFYETGSI [PAX2_Y73_YF]
rule not met

Another: NDENIYKGLPD [VAV3_Y141_D139N]
rule met

Next:
API: above_or_equal(metric=phosphorylation enrichment, cutoff=0.7) for item DRLAVCIDRVR [LMNA_Y45_Y45C]
rule met

* * *

molecular target: Fyn (UniProt P06241); experiment: phosphorylation enrichment, bacterial display (enrichment ratio); higher = better substrate or ligand; peptides without Tyr show the background
Sequence (P06241 whole entry, looked up): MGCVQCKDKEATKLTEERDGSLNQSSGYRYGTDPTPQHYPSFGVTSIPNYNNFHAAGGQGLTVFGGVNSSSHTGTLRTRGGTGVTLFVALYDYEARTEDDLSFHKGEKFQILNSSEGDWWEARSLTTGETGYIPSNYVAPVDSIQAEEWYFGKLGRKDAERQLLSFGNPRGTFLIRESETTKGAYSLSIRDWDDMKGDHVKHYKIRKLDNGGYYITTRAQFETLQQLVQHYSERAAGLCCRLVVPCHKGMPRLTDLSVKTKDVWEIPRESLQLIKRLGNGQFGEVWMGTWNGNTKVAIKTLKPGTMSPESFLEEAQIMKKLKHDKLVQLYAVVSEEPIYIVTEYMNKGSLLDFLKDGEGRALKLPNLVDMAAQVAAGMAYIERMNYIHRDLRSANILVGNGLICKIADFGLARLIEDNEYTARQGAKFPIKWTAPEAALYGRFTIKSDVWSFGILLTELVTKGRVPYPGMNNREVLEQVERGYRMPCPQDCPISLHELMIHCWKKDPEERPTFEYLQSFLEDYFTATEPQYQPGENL
MEASURED QUANTITY: phosphorylation enrichment
Field format: numeric only.

// lookup phosphorylation enrichment for MGRVNYGAFIN [GLB1_Y485_YF]
0.408

Another: CPPKVYELMIA [ABL2_Y515_R519I]
0.916

Another: ANAFIYDVQLP [L1CAM_Y420_V421D_YF]
6.97

Another: HHIDFYKKTTN [FGFR1_Y654_YF]
0.435

Next:
// lookup phosphorylation enrichment for CNPRRYPVLMS [OR2T1_Y182_L180R]
0.501

Another: TLSGIYQFSIA [FOXL2_Y81_I84S_YF]
5.53

Another: SVVVPYDPPEV [TP53_Y220_E221D]
0.48

* * *

biological target: SHP2-C SH2; experiment: SH2 binding enrichment of the phosphorylated peptide, bacterial display (enrichment ratio); higher = better substrate or ligand; peptides without Tyr show the background
Item-by-item account of SH2 binding enrichment
Field format: numeric only.

// lookup SH2 binding enrichment for CITIHYNYMCN [TP53_Y234_T230I]
1.44

Another: RMDGTYACSYT [FLNB_Y704]
1.02

Another: QTPVLYAMLFH [MPZ_Y220_D224Y_YF]
0.778

Another: RLLRGYDQLAY [HLA-C_Y137_S140L]
0.727

Another: EQKKNYNAMKK [SCN5A_Y1495_Y1494N]
0.973

Another: RFQKLYLDRNL [IGFALS_Y248_L244F]
0.771

Next:
// lookup SH2 binding enrichment for ATARPYRPFII [LRP5_Y1528_YF]
0.625
